# System: HIV
# method-description: Virucidal test against HIV (protection of HIV-infected MT-4 cells, MTT method)
# Format: cell-based
# condition-description: CC50/EC50, MT-4 cells
Measured S.I. (selectivity index, ratio CC50/EC50) by item
measured-endpoint: S.I. (selectivity index, ratio CC50/EC50)

molecule: CCOC(=O)CCN(C)C(=O)Oc1nsnc1-c1c(Cl)cccc1Cl [Compound 224]
censoring-sign: =
experimental-result: 385
//
molecule: CN(CCCC(=O)O)C(=O)Oc1nsnc1-c1c(Cl)cccc1Cl [Compound 222]
censoring-sign: >
experimental-result: 71
//
molecule: COCCOc1nsnc1-c1c(Cl)cccc1Cl [Compound 159]
censoring-sign: =
experimental-result: 5
//
molecule: CCCN(C)C(=O)Oc1nsnc1-c1c(Cl)ccc(C(=O)OC)c1Cl [Compound 91]
censoring-sign: =
experimental-result: 144
//
molecule: CCCN(C)C(=O)Oc1nsnc1-c1c(Cl)ccc(C(N)=O)c1Cl [Compound 93]
censoring-sign: =
experimental-result: 59

###

# method-description: Cytotoxicity in MT-4 cells incubated without infection by HIV
# Assay type: cell-based
# condition-description: human; MT-4 cells without infection by HIV, 37° C., 5 days, MTT method; read-out: CC50 (compound concentration which causes death of 50% of the MT-4 cells)
Measured log10 of CC50 at 120 h by item
measured-endpoint: log10 of CC50 at 120 h (log10 of the value in µg/mL)

input-smiles: CCCN(C)C=Nc1nsnc1-c1c(Cl)cccc1Cl
experimental-result: 0.96
//
input-smiles: CCCN(C)C(=O)Oc1nsnc1-c1c(Cl)ccc(N)c1Cl
experimental-result: 0.67
//
input-smiles: CN(C)C(=O)Oc1nsnc1-c1cc(N)ccc1Cl
experimental-result: 1.56
//
input-smiles: CCOC(=O)CCN(C)C(=O)Oc1nsnc1-c1c(Cl)cccc1Cl
experimental-result: 1.70
//
input-smiles: CCN(C=Nc1nsnc1-c1c(Cl)cccc1Cl)CC
experimental-result: 1.15
//
input-smiles: COCOc1nsnc1-c1c(Cl)cccc1Cl
experimental-result: 1.63
//
input-smiles: COCCOc1nsnc1-c1c(Cl)cccc1Cl
experimental-result: 1.04
//
input-smiles: CCCN(C)C(=O)Oc1nsnc1-c1c(Cl)ccc(C(N)=O)c1Cl
experimental-result: 1.81
//
input-smiles: CN(CCO)C(=O)Oc1nsnc1-c1c(Cl)cccc1Cl
experimental-result: 1.80
//
input-smiles: CN(C)C(=O)Oc1nsnc1-c1c(Cl)ccc(N)c1Cl
experimental-result: 0.97
//
input-smiles: CCCN(C)C(=O)Oc1nsnc1-c1cc(N)ccc1Cl
experimental-result: 1.34
//
input-smiles: CN(CC#N)C(=O)Oc1nsnc1-c1c(Cl)cccc1Cl
experimental-result: 1.81
//
input-smiles: Clc1cccc(Cl)c1-c1nsnc1OCc1ccccn1
experimental-result: 0.43
//
input-smiles: CCCN(C)C(=O)c1nsnc1-c1ccccc1Cl
experimental-result: 1.57
//
input-smiles: CCCN(C)C(=O)Oc1nsnc1-c1c(Cl)ccc(C(=O)OC)c1Cl
experimental-result: 0.96
//
input-smiles: CN(CCC#N)C(=O)Oc1nsnc1-c1c(Cl)cccc1Cl
experimental-result: 1.66
//
input-smiles: Clc1cccc(Cl)c1-c1nsnc1OCCBr
experimental-result: 0.68
//
input-smiles: CN(C)C=Nc1nsnc1-c1c(Cl)cccc1Cl
experimental-result: 1.49
//
input-smiles: CCCN(C)CCOc1nsnc1-c1c(Cl)cccc1Cl
experimental-result: 0.92
//
input-smiles: CCCN(C)C(=O)Oc1nsnc1-c1c(F)ccc(N)c1Cl
experimental-result: 1.34
//
input-smiles: COCCOCOc1nsnc1-c1c(Cl)cccc1Cl
experimental-result: 1.66
//
input-smiles: Clc1cccc(Cl)c1-c1nsnc1OCc1cccnc1
experimental-result: 0.28
//
input-smiles: CCCN(C)C(=O)Cc1nsnc1-c1ccccc1Cl
experimental-result: 1.26
//
input-smiles: CCN(CC)C(C)=Nc1nsnc1-c1c(Cl)cccc1Cl
experimental-result: 0.73
//
input-smiles: CN(C)S(=O)(=O)Oc1nsnc1-c1c(Cl)cccc1Cl
experimental-result: 1.00
//
input-smiles: O=[N+]([O-])c1ccccc1COc1nsnc1-c1c(Cl)cccc1Cl
experimental-result: 0.93
//
input-smiles: CCCN(C)C(=O)Oc1nsnc1-c1c(Cl)ccc(C#N)c1Cl
experimental-result: 1.36

###

# System: HIV
# method-description: Virucidal test against HIV (protection of HIV-infected MT-4 cells, MTT method)
# Type: cell-based
# condition-description: CC50/EC50, MT-4 cells
Friendly reminder: S.I. (selectivity index, ratio CC50/EC50) below 200 is Y, at or above is N.

input-smiles: CCCN(C)C(=O)Cc1nsnc1-c1ccccc1Cl
category: Y
//
input-smiles: CCCN(C)C(=O)Oc1nsnc1-c1c(F)ccc(N)c1Cl
category: N
//
input-smiles: CCCN(C)C(=O)c1nsnc1-c1ccccc1Cl
category: Y
//
input-smiles: CN(C)C=Nc1nsnc1-c1c(Cl)cccc1Cl
category: Y
//
input-smiles: Clc1cccc(Cl)c1-c1nsnc1OCc1ccccn1
category: Y
//
input-smiles: COCOc1nsnc1-c1c(Cl)cccc1Cl
category: Y
//
input-smiles: CCCN(C)C(=O)Oc1nsnc1-c1cc(N)ccc1Cl
category: N
//
input-smiles: O=[N+]([O-])c1ccccc1COc1nsnc1-c1c(Cl)cccc1Cl
category: Y
//
input-smiles: Clc1cccc(Cl)c1-c1nsnc1OCCBr
category: Y
//
input-smiles: CN(CC#N)C(=O)Oc1nsnc1-c1c(Cl)cccc1Cl
category: Y
//
input-smiles: CCCN(C)C=Nc1nsnc1-c1c(Cl)cccc1Cl
category: Y
//
input-smiles: Clc1cccc(Cl)c1-c1nsnc1OCc1cccnc1
category: Y
//
input-smiles: CN(CCC#N)C(=O)Oc1nsnc1-c1c(Cl)cccc1Cl
category: N
//
input-smiles: CSCOc1nsnc1-c1c(Cl)cccc1Cl
category: N
//
input-smiles: CN(C)S(=O)(=O)Oc1nsnc1-c1c(Cl)cccc1Cl
category: Y
//
input-smiles: CN(C)C(=O)Oc1nsnc1-c1c(Cl)ccc(N)c1Cl
category: N
//
input-smiles: CCCN(C)C(=O)Oc1nsnc1-c1c(Cl)ccc(N)c1Cl
category: N
//
input-smiles: CN(C)C(=O)Oc1nsnc1-c1cc(N)ccc1Cl
category: N
//
input-smiles: COCCOCOc1nsnc1-c1c(Cl)cccc1Cl
category: Y
//
input-smiles: CCCN(C)CCOc1nsnc1-c1c(Cl)cccc1Cl
category: Y
//
input-smiles: CN(CCO)C(=O)Oc1nsnc1-c1c(Cl)cccc1Cl
category: Y
//
input-smiles: CCCN(C)C(=O)Oc1nsnc1-c1c(Cl)ccc(C#N)c1Cl
category: N
//
input-smiles: CCN(CC)C(C)=Nc1nsnc1-c1c(Cl)cccc1Cl
category: Y
//
input-smiles: CCN(C=Nc1nsnc1-c1c(Cl)cccc1Cl)CC
category: N

###

# method-description: Cytotoxicity in MT-4 cells incubated without infection by HIV
# Assay type: cell-based
# condition-description: human; MT-4 cells without infection by HIV, 37° C., 5 days, MTT method; read-out: CC50 (compound concentration which causes death of 50% of the MT-4 cells)

compound: CN(CCCC(=O)O)C(=O)Oc1nsnc1-c1c(Cl)cccc1Cl [Compound 222]
CC50 at 120 h: > 100 µg/mL

compound: CN(CCC(N)=O)C(=O)Oc1nsnc1-c1c(Cl)cccc1Cl [Compound 223]
CC50 at 120 h: > 100 µg/mL

compound: CSCOc1nsnc1-c1c(Cl)cccc1Cl [Compound 155]
CC50 at 120 h: > 100 µg/mL
